Listing of recorded herbicidal effect rating, ORYSAT (rice tolerance) by entry.
tested on: Oryza sativa, (L.) Tebonnet; experiment: Rice tolerance to post-transplant applications under flooded paddy conditions (Example 187), ORYSAT (Rice, Tebonnet); conditions: 0.0313 kg/ha, rated three to four weeks after treatment
property.measured: herbicidal effect rating, ORYSAT (rice tolerance)

compound	measured.result
COCc1nsc2ccc(-n3c(=O)cc(C(F)(F)F)n(C)c3=O)cc12	7.5
Cn1c(C(F)(F)F)cc(=O)n(-c2ccc3snc(C(CCl)CCl)c3c2)c1=O	3.0
COc1cc(C)ccc1-c1nsc2ccc(-n3c(=O)cc(C(F)(F)F)n(C)c3=O)cc12	6.0
Cc1ccc(O)c(-c2noc3ccc(-n4c(=O)cc(C(F)(F)F)n(C)c4=O)c(Cl)c23)c1	0.0
COC(=O)C(C)Oc1cc(C)c(C)cc1-c1nsc2ccc(-n3c(=O)cc(C(F)(F)F)n(C)c3=O)cc12 (stereo not shown)	4.0
C=CC(C)OCc1nsc2ccc(-n3c(=O)cc(C(F)(F)F)n(C)c3=O)cc12 (stereo not shown)	5.0
COC(=O)COc1noc2ccc(-n3c(=O)cc(C(F)(F)F)n(C)c3=O)cc12	2.0
C=CCOCc1nsc2ccc(-n3c(=O)cc(C(F)(F)F)n(C)c3=O)cc12	4.0
Cn1c(C(F)(F)F)cc(=O)n(-c2ccc3snc(CP(=O)(O)O)c3c2)c1=O	3.0
COC(=O)COc1cc(C)c(C)cc1-c1nsc2ccc(-n3c(=O)cc(C(F)(F)F)n(C)c3=O)cc12	4.0

====

tested on: Oryza sativa, (L.) Tebonnet; test: Rice tolerance to post-transplant applications under flooded paddy conditions (Example 187), ORYSAT (Rice, Tebonnet); conditions: Rate 0.2500 kg/ha, rated three to four weeks after treatment; for herbicidal effect rating ORYSAT: meaning of each grade not given here
Listing of recorded herbicidal effect rating ORYSAT by entry.

compound	herbicidal effect rating ORYSAT
Cn1c(C(F)(F)F)cc(=O)n(-c2ccc3snc(C(=O)NS(=O)(=O)Cc4ccccc4)c3c2)c1=O	3.5
C[C@@H](Br)[C@H](Br)c1nsc2ccc(-n3c(=O)cc(C(F)(F)F)n(C)c3=O)cc12	7.5
CN(C)C(=O)c1nsc2ccc(-n3c(=O)cc(C(F)(F)F)n(C)c3=O)cc12	3.0
Cn1c(C(F)(F)F)cc(=O)n(-c2ccc3snc(C(=O)NS(=O)(=O)c4ccc5ccccc5c4)c3c2)c1=O	3.0
Cn1c(C(F)(F)F)cc(=O)n(-c2ccc3snc(COCc4ccc(Cl)c(Cl)c4)c3c2)c1=O	2.0
CC(Oc1ccccc1-c1nsc2ccc(-n3c(=O)cc(C(F)(F)F)n(C)c3=O)cc12)C(=O)O (stereo not drawn)	5.0
CC(Oc1ccccc1-c1nsc2ccc(-n3c(=O)cc(C(F)(F)F)n(C)c3=O)cc12)C(=O)NS(C)(=O)=O (stereo not drawn)	7.0
COC(=O)COc1ccc(C)cc1-c1noc2cc(F)c(-n3c(=O)cc(C(F)(F)F)n(C)c3=O)cc12	9.0
Cc1ccc(OC(C)C(=O)NS(C)(=O)=O)c(-c2nsc3ccc(-n4c(=O)cc(C(F)(F)F)n(C)c4=O)cc23)c1 (stereo not drawn)	6.0
Cn1c(C(F)(F)F)cc(=O)n(-c2cc3c(CBr)nsc3cc2F)c1=O	8.5
Cn1c(C(F)(F)F)cc(=O)n(-c2ccc3snc(C(C#N)=Cc4cc5ccccc5[nH]4)c3c2)c1=O	7.0
Cn1c(C(F)(F)F)cc(=O)n(-c2ccc3snc(CN=C=S)c3c2)c1=O	2.0
Cc1ccc(OC(C)(C)C(=O)NS(C)(=O)=O)c(-c2nsc3ccc(-n4c(=O)cc(C(F)(F)F)n(C)c4=O)cc23)c1	9.0
Cn1c(C(F)(F)F)cc(=O)n(-c2cc3c(C(Br)Br)nsc3cc2F)c1=O	9.0
Cn1c(C(F)(F)F)cc(=O)n(-c2ccc3snc(C(=O)Oc4ccccc4)c3c2)c1=O	7.0

====

tested on: Sagittaria pygmaea, L.; test: Preemergence weed control under flooded paddy conditions, SAGPY (Arrowhead (Pygmaea)); assay type: in vivo; details: 0.0620 kg/ha; preemergence, flooded paddy; rated three to four weeks after treatment

molecule	SAGPY herbicidal rating
Cn1c(C(F)(F)F)cc(=O)n(-c2ccc3snc(COC(=O)c4cccs4)c3c2)c1=O	0.0
COC(=O)COc1cc(C)ccc1-c1nsc2cc(F)c(-n3c(=O)cc(C(F)(F)F)n(C)c3=O)cc12	5.0
COCC(=O)OCc1nsc2ccc(-n3c(=O)cc(C(F)(F)F)n(C)c3=O)cc12	0.0
Cn1c(C(F)(F)F)cc(=O)n(-c2ccc3snc(COC(=O)c4ccco4)c3c2)c1=O	0.0
Cn1c(C(F)(F)F)cc(=O)n(-c2ccc3snc(COC(=O)c4cc(Cl)nc(Cl)c4)c3c2)c1=O	0.0
COC(=O)C(C)Oc1ccc(I)cc1-c1nsc2ccc(-n3c(=O)cc(C(F)(F)F)n(C)c3=O)cc12 (stereo not shown)	0.0
Cn1c(C(F)(F)F)cc(=O)n(-c2ccc3snc(C(=O)NS(=O)(=O)Cc4ccc(Cl)cc4)c3c2)c1=O	4.0
Cn1c(C(F)(F)F)cc(=O)n(-c2cc3c(C(=O)NS(=O)(=O)Cc4ccccc4)nsc3cc2F)c1=O	4.0
Cn1c(C(F)(F)F)cc(=O)n(-c2ccc3snc(C(C)(C)C(=O)OCc4ccco4)c3c2)c1=O	5.0
CN(C(=O)c1nsc2ccc(-n3c(=O)cc(C(F)(F)F)n(C)c3=O)cc12)S(=O)(=O)Cc1ccccc1	0.0
Cn1c(C(F)(F)F)cc(=O)n(-c2ccc3snc(COC(=O)c4cccnc4Cl)c3c2)c1=O	3.0
COc1cc(Cl)c(C)cc1-c1nsc2ccc(-n3c(=O)cc(C(F)(F)F)n(C)c3=O)cc12	3.0
Cn1c(C(F)(F)F)cc(=O)n(-c2ccc3snc(COC(=O)c4ccncc4)c3c2)c1=O	3.0

====

test system: Oryza sativa, (L.) Tebonnet; test: Rice tolerance to post-transplant applications under flooded paddy conditions (Example 187), ORYSAT (Rice, Tebonnet); settings: Rate 0.1250 kg/ha, rated 3-4 weeks after treatment; for herbicidal effect rating ORYSAT: meaning of each grade not given here
Values of herbicidal effect rating ORYSAT greater than or equal to 4 map to TRUE; values below map to FALSE.

molecule	discrete.label
CC(C)S(=O)(=O)NC(=O)COc1ccccc1-c1nsc2ccc(-n3c(=O)cc(C(F)(F)F)n(C)c3=O)cc12 [Example 555]	TRUE
Cc1ccc(OCC(=O)OCC2(c3ccccc3)CC2)c(-c2nsc3ccc(-n4c(=O)cc(C(F)(F)F)n(C)c4=O)cc23)c1 [Example 517]	FALSE
Cn1c(C(F)(F)F)cc(=O)n(-c2ccc3snc(/C=C/C(=O)c4ccccc4)c3c2)c1=O [Example 564]	FALSE
C=CS(=O)(=O)NC(=O)COc1ccccc1-c1nsc2ccc(-n3c(=O)cc(C(F)(F)F)n(C)c3=O)cc12 [Example 557]	TRUE
CNC(=O)COc1ccc(C)cc1-c1nsc2ccc(-n3c(=O)cc(C(F)(F)F)n(C)c3=O)cc12 [Example 561]	FALSE

====

tested on: Cyperus iria; test: Preemergence weed control under flooded paddy conditions, CYPIR (Rice Flatsedge); format: in vivo; settings: Rate 0.1250 kg/ha; preemergence, flooded paddy; rated 3-4 weeks after treatment; note: meaning of each grade not given here
Lab note: compare herbicidal effect rating, CYPIR with 2, writing yes if less and no if equal or more.

compound	assayed.system	discrete.label
COCCCOCCCOC(=O)COc1ccc(C)cc1-c1nsc2ccc(-n3c(=O)cc(C(F)(F)F)n(C)c3=O)cc12 [Example 523]	Cyperus iria	no
CCCCCCC#CCCOC(=O)COc1ccc(C)cc1-c1nsc2ccc(-n3c(=O)cc(C(F)(F)F)n(C)c3=O)cc12 [Example 522]	Cyperus iria	yes
Cn1c(C(F)(F)F)cc(=O)n(-c2ccc3snc(-c4ccccc4OCC(N)=O)c3c2)c1=O [Example 563]	Cyperus iria	no
C=CCOC(=O)C(C)(C)Oc1ccc(C)cc1-c1nsc2ccc(-n3c(=O)cc(C(F)(F)F)n(C)c3=O)cc12 [Example 530]	Cyperus iria	no

====

system: Oryza sativa, (L.) Tebonnet; experiment: Rice tolerance to post-transplant applications under flooded paddy conditions (Example 187), ORYSAT (Rice, Tebonnet); details: Rate 0.5000 kg/ha, rated 3-4 weeks after treatment; for herbicidal effect rating ORYSAT: meaning of each grade not given here
Listing of recorded herbicidal effect rating ORYSAT by entry.

molecule	herbicidal effect rating ORYSAT
Cc1ccc(OC(C)(C)C(=O)OCCCl)c(-c2nsc3ccc(-n4c(=O)cc(C(F)(F)F)n(C)c4=O)cc23)c1 [Example 544]	8.0
Cc1ccc(OCC(=O)NS(=O)(=O)C(C)C)c(-c2nsc3ccc(-n4c(=O)cc(C(F)(F)F)n(C)c4=O)cc23)c1 [Example 560]	2.0
Cc1ccc(OC(C)C(=O)c2ccc(C)c(C)c2)c(-c2nsc3ccc(-n4c(=O)cc(C(F)(F)F)n(C)c4=O)cc23)c1 (centres unmarked) [Example 542]	2.0
Cc1ccc(OC(C)(C)C(=O)OC(C)C)c(-c2nsc3ccc(-n4c(=O)cc(C(F)(F)F)n(C)c4=O)cc23)c1 [Example 547]	3.0
CCOC(=O)c1ccc(NC(=O)C(C)Oc2ccc(C)cc2-c2nsc3ccc(-n4c(=O)cc(C(F)(F)F)n(C)c4=O)cc23)cc1 (centres unmarked) [Example 541]	2.0
Cn1c(C(F)(F)F)cc(=O)n(-c2ccc3snc(-c4ccccc4OCC(N)=O)c3c2)c1=O [Example 563]	4.0
CNC(=O)COc1ccccc1-c1nsc2ccc(-n3c(=O)cc(C(F)(F)F)n(C)c3=O)cc12 [Example 562]	6.0
CCCS(=O)(=O)NC(=O)COc1ccccc1-c1nsc2ccc(-n3c(=O)cc(C(F)(F)F)n(C)c3=O)cc12 [Example 556]	5.0
Cc1ccc(OC(C)(C)C(=O)OCC(F)(F)F)c(-c2nsc3ccc(-n4c(=O)cc(C(F)(F)F)n(C)c4=O)cc23)c1 [Example 545]	9.0
C=CS(=O)(=O)NC(=O)COc1ccccc1-c1nsc2ccc(-n3c(=O)cc(C(F)(F)F)n(C)c3=O)cc12 [Example 557]	9.0
CC(C)S(=O)(=O)NC(=O)COc1ccccc1-c1nsc2ccc(-n3c(=O)cc(C(F)(F)F)n(C)c3=O)cc12 [Example 555]	3.0
Cc1ccc(OCC(=O)c2ccc(Cl)cc2)c(-c2nsc3ccc(-n4c(=O)cc(C(F)(F)F)n(C)c4=O)cc23)c1 [Example 538]	1.0
CCCS(=O)(=O)NC(=O)COc1ccc(C)cc1-c1nsc2ccc(-n3c(=O)cc(C(F)(F)F)n(C)c3=O)cc12 [Example 552]	4.0
Cc1ccc(OCC(=O)C(C)(C)C)c(-c2nsc3ccc(-n4c(=O)cc(C(F)(F)F)n(C)c4=O)cc23)c1 [Example 540]	3.0
CCS(=O)(=O)NC(=O)COc1ccc(C)cc1-c1nsc2ccc(-n3c(=O)cc(C(F)(F)F)n(C)c3=O)cc12 [Example 554]	6.0
C=CS(=O)(=O)NC(=O)COc1ccc(C)cc1-c1nsc2ccc(-n3c(=O)cc(C(F)(F)F)n(C)c3=O)cc12 [Example 553]	4.0
COCCOC(=O)C(C)(C)Oc1ccc(C)cc1-c1nsc2ccc(-n3c(=O)cc(C(F)(F)F)n(C)c3=O)cc12 [Example 546]	6.0
Cn1c(C(F)(F)F)cc(=O)n(-c2ccc3snc(-c4ccccc4OCC(=O)C(C)(C)C)c3c2)c1=O [Example 549]	2.0
Cc1ccc(C(=O)C(C)Oc2ccccc2-c2nsc3ccc(-n4c(=O)cc(C(F)(F)F)n(C)c4=O)cc23)cc1C (centres unmarked) [Example 550]	0.0
CCS(=O)(=O)NC(=O)COc1ccccc1-c1nsc2ccc(-n3c(=O)cc(C(F)(F)F)n(C)c3=O)cc12 [Example 558]	9.0
Cc1ccc(OCC(N)=O)c(-c2nsc3ccc(-n4c(=O)cc(C(F)(F)F)n(C)c4=O)cc23)c1 [Example 539]	5.0
CC(Oc1ccccc1-c1nsc2ccc(-n3c(=O)cc(C(F)(F)F)n(C)c3=O)cc12)C(=O)N(C)C (centres unmarked) [Example 551]	4.0
CCOC(=O)C(F)(F)Oc1ccc(C)cc1-c1nsc2ccc(-n3c(=O)cc(C(F)(F)F)n(C)c3=O)cc12 [Example 559]	2.0
CNC(=O)COc1ccc(C)cc1-c1nsc2ccc(-n3c(=O)cc(C(F)(F)F)n(C)c3=O)cc12 [Example 561]	2.0
Cn1c(C(F)(F)F)cc(=O)n(-c2ccc3snc(-c4ccccc4OCC(N)=O)c3c2)c1=O [Example 548]	4.0
Cc1ccc(OCC(=O)c2ccc(OC(F)F)cc2)c(-c2nsc3ccc(-n4c(=O)cc(C(F)(F)F)n(C)c4=O)cc23)c1 [Example 543]	2.0

Data provenance is patent EP0908457B1.
